Please respond with reported combination Emax for every item in the list.
- Test system: COLO-320-HSR (Colorectal Carcinoma)
- ASSAY_OVERVIEW: combination Emax (second highest fraction inhibited in the dose matrix, 72 h); higher = more inhibition; extreme values may be limits of the assay
Answer with the value's number alone.

Ask: Need combination Emax, item CN(CCO)CC[C@H](CSc1ccccc1)Nc1ccc(S(=O)(=O)NC(=O)c2ccc(N3CCC([C@@H](O)c4ccccc4-c4ccc(Cl)cc4)CC3)cc2)cc1S(=O)(=O)C(F)(F)F [AZD4320] + C=CCn1c(=O)c2cnc(Nc3ccc(N4CCN(C)CC4)cc3)nc2n1-c1cccc(C(C)(C)O)n1 [AZD1775] (first compound max 1 µM, partner max 1 µM)
Reply: 0.632

Ask: Subsequent entry: NC1(C(=O)N[C@@H](CCO)c2ccc(Cl)cc2)CCN(c2ncnc3[nH]ccc23)CC1 [Capivasertib] + C[C@@H]1COCCN1C2=NC(=NC(=C2)C3(CC3)[S@](=N)(=O)C)C4=C5C=CNC5=NC=C4 [AZD6738] (first compound max 10 µM, 7x7, partner max 10 µM)
Reply: 0.507
